Data origin, for the record: the supplement of paper PMC6555819

System: PPARg DBDmut IVT, anti-PPARg (DBD mutation: PPARg1 K132A/R137A, NR concentration 270 nM)
Experiment: PBM binding z-score (relative to random genomic background probes); higher = stronger binding; sequences stand for … in GC…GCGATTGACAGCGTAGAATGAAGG
Please respond with reported PBM binding z-score for every item in the list.
API doc: respond with a numeric literal and nothing else, no unit.

*Q* Give PBM binding z-score for this entry on PPARg DBDmut IVT, anti-PPARg (DBD mutation: PPARg1 K132A/R137A, NR concentration 270 nM): TAGCCTAGGTCATTCGGGCCAGTATAGTGTCGGC
*A* -0.745

*Q* Give PBM binding z-score for this entry on PPARg DBDmut IVT, anti-PPARg (DBD mutation: PPARg1 K132A/R137A, NR concentration 270 nM): CCGACTTGGGCAAGGTTACCATAACGCACAGCCA
*A* -0.816

*Q* Give PBM binding z-score for this entry on PPARg DBDmut IVT, anti-PPARg (DBD mutation: PPARg1 K132A/R137A, NR concentration 270 nM): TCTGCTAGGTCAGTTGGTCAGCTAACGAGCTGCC
*A* 0.752

*Q* Give PBM binding z-score for this entry on PPARg DBDmut IVT, anti-PPARg (DBD mutation: PPARg1 K132A/R137A, NR concentration 270 nM): CCTATTAGTTGACCATAAGAGCAACCGAAGCTCG
*A* 0.759

*Q* Give PBM binding z-score for this entry on PPARg DBDmut IVT, anti-PPARg (DBD mutation: PPARg1 K132A/R137A, NR concentration 270 nM): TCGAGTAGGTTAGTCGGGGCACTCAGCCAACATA
*A* -0.114

*Q* Give PBM binding z-score for this entry on PPARg DBDmut IVT, anti-PPARg (DBD mutation: PPARg1 K132A/R137A, NR concentration 270 nM): ATATGTAGGTTAGCTGGGGTCATTCGGACTAGGC
*A* 1.98

*Q* Give PBM binding z-score for this entry on PPARg DBDmut IVT, anti-PPARg (DBD mutation: PPARg1 K132A/R137A, NR concentration 270 nM): CCTAGCAGGCCAATCTGGGTAACTCAAGGCTTGA
*A* -0.9

*Q* Give PBM binding z-score for this entry on PPARg DBDmut IVT, anti-PPARg (DBD mutation: PPARg1 K132A/R137A, NR concentration 270 nM): GCCATTAGTTGAAAGGGCAACCGAATGATTCTCG
*A* -0.306

*Q* Give PBM binding z-score for this entry on PPARg DBDmut IVT, anti-PPARg (DBD mutation: PPARg1 K132A/R137A, NR concentration 270 nM): CGAACTAGGTCATCCAGGACAGTGAGTACATTGA
*A* 1.36

*Q* Give PBM binding z-score for this entry on PPARg DBDmut IVT, anti-PPARg (DBD mutation: PPARg1 K132A/R137A, NR concentration 270 nM): GTACCAAGGTGAATGGGTCGTTGATGAGTAGGCG
*A* -0.57

*Q* Give PBM binding z-score for this entry on PPARg DBDmut IVT, anti-PPARg (DBD mutation: PPARg1 K132A/R137A, NR concentration 270 nM): CGAGCTAGGTCAGAACAGGACAGTGAAGGATGAT
*A* -1.15

*Q* Give PBM binding z-score for this entry on PPARg DBDmut IVT, anti-PPARg (DBD mutation: PPARg1 K132A/R137A, NR concentration 270 nM): ATCTCTAGGTAACAACTTCAGTGAAAGAGAGGAC
*A* 1.45

*Q* Give PBM binding z-score for this entry on PPARg DBDmut IVT, anti-PPARg (DBD mutation: PPARg1 K132A/R137A, NR concentration 270 nM): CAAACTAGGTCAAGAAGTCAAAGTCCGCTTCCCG
*A* 3.42

*Q* Give PBM binding z-score for this entry on PPARg DBDmut IVT, anti-PPARg (DBD mutation: PPARg1 K132A/R137A, NR concentration 270 nM): CCTTACGGGTCACGAGGTAATAGCACGACGAGCG
*A* 1.21

*Q* Give PBM binding z-score for this entry on PPARg DBDmut IVT, anti-PPARg (DBD mutation: PPARg1 K132A/R137A, NR concentration 270 nM): TCTTGTAGATCGAAGGTTAAGAAAGCCGAAGCCT
*A* -0.226

*Q* Give PBM binding z-score for this entry on PPARg DBDmut IVT, anti-PPARg (DBD mutation: PPARg1 K132A/R137A, NR concentration 270 nM): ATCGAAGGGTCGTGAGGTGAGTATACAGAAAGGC
*A* 0.999

*Q* Give PBM binding z-score for this entry on PPARg DBDmut IVT, anti-PPARg (DBD mutation: PPARg1 K132A/R137A, NR concentration 270 nM): CGAACTATGTCATCCAGGACAGTGAATACATTGA
*A* 1.1

*Q* Give PBM binding z-score for this entry on PPARg DBDmut IVT, anti-PPARg (DBD mutation: PPARg1 K132A/R137A, NR concentration 270 nM): ACAGACAGGCGAGTGAAGGTAACTCAGCTGGACG
*A* -0.29

*Q* Give PBM binding z-score for this entry on PPARg DBDmut IVT, anti-PPARg (DBD mutation: PPARg1 K132A/R137A, NR concentration 270 nM): AGTAAAAGTTCATCTAGGTAACGTAAGATATGCT
*A* 1.83

*Q* Give PBM binding z-score for this entry on PPARg DBDmut IVT, anti-PPARg (DBD mutation: PPARg1 K132A/R137A, NR concentration 270 nM): TCTAGTAGGCCAGAGGGTCACTCAAGAGGTACGG
*A* 0.392

*Q* Give PBM binding z-score for this entry on PPARg DBDmut IVT, anti-PPARg (DBD mutation: PPARg1 K132A/R137A, NR concentration 270 nM): TAGCCCAGGTCAGATCGGGCCAGTATACGCTATA
*A* -0.724

*Q* Give PBM binding z-score for this entry on PPARg DBDmut IVT, anti-PPARg (DBD mutation: PPARg1 K132A/R137A, NR concentration 270 nM): CGATCTAGGTCAGAACAGGACAGTGAAGGATGAT
*A* 1.33

*Q* Give PBM binding z-score for this entry on PPARg DBDmut IVT, anti-PPARg (DBD mutation: PPARg1 K132A/R137A, NR concentration 270 nM): ATAGGTAGGTTACATCCGGGTCATTCAGGCTATG
*A* 0.221

*Q* Give PBM binding z-score for this entry on PPARg DBDmut IVT, anti-PPARg (DBD mutation: PPARg1 K132A/R137A, NR concentration 270 nM): CAAACTAGGTCAAGGTCAAAGCCGGTTTGTGCCA
*A* 0.00542

*Q* Give PBM binding z-score for this entry on PPARg DBDmut IVT, anti-PPARg (DBD mutation: PPARg1 K132A/R137A, NR concentration 270 nM): AGAATGAGGGTACCAAAGATCAGGGAAACGCTTG
*A* 0.511

*Q* Give PBM binding z-score for this entry on PPARg DBDmut IVT, anti-PPARg (DBD mutation: PPARg1 K132A/R137A, NR concentration 270 nM): TTACTAAGGTGAGCTGAGGTCGTTGATCCAACTC
*A* 0.0653

###

System: RARb homodimer (NR concentration 270 nM)
Assay: PBM binding z-score (relative to random genomic background probes); higher = stronger binding; sequences stand for … in GC…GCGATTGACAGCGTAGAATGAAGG
Outcome label depends on PBM binding z-score relative to 2: at/above gives yes, below gives no.

*Q* Hi team, for CTCGAAAGGTCGTGCGCAGGTGAGTATACCAAAC , is the recorded PBM binding z-score at or above 2?
*A* yes

*Q* Hi team, for CCCAGTTGGTCAAGGTCACACACGCTATAGGTAC , is the recorded PBM binding z-score at or above 2?
*A* yes

*Q* Hi team, for AATACAGGTTCATCGTAGGCCAGAGTACGCACAG , is the recorded PBM binding z-score at or above 2?
*A* no

*Q* Hi team, for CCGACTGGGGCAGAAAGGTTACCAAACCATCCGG , is the recorded PBM binding z-score at or above 2?
*A* yes

*Q* Hi team, for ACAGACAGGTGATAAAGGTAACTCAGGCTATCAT , is the recorded PBM binding z-score at or above 2?
*A* no

*Q* Hi team, for TCGAGTAGGTTAACAATGGGGCATTCAGCTTTCT , is the recorded PBM binding z-score at or above 2?
*A* no
